Values from the supplement of paper PMC8728848

study-system: Gal(b1-4)GalNAc(a1-3)[Fuc(a1-2)]Gal(b1-4)GlcNAc
experimental-details: glycan array binding signal (z-score within array); higher = stronger binding
run-parameters: glycan notation: IUPAC condensed, linker removed
The full list was thinned out, with the strongest signals kept by preference.
observed-property: glycan array binding signal (z-score)
// no unit string in output, number only

binder	observed-property	reported-measurement
GNAT (Pseudomonas aeruginosa), Q9HV14 (protein) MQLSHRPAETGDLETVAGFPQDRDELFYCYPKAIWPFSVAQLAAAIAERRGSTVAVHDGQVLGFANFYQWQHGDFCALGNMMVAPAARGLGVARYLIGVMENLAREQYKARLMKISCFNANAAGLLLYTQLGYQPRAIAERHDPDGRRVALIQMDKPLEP	glycan array binding signal (z-score)	-0.14
Epa19 (Candida glabrata) (protein) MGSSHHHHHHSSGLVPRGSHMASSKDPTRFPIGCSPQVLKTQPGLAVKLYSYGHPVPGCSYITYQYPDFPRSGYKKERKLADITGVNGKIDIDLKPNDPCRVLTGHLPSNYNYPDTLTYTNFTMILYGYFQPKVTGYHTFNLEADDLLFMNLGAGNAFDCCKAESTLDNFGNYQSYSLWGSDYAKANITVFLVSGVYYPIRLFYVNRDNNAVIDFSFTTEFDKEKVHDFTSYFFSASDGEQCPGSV	glycan array binding signal (z-score)	-0.193

// below: glycan array binding signal (z-score) requested for another binder
Prompt line: May I ask what glycan array binding signal (z-score) has been recorded for Epa1 (Candida glabrata) (protein) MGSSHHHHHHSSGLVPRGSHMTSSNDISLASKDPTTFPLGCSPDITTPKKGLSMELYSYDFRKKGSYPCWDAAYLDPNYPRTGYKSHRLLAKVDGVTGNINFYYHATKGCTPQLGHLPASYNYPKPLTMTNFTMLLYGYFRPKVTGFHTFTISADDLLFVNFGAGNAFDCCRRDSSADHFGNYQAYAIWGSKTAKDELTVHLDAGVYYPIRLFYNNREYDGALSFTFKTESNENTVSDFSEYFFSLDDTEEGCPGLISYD ?
Response line: -0.197
